assay_text: Steady-state tryptophan fluorescence and CD with and without POPC liposomes
Format: physicochemical
assay_context: peptide in phosphate buffer pH 8, no liposomes; 5 μM peptide; excitation 280 nm; 25 °C
Peptide text beside a SMILES is read from it.
property_label: maximum position of the fluorescence spectrum λmax, Pep, pH8

### Prompt Quick one: give measured maximum position of the fluorescence spectrum λmax, Pep, pH8 for O=C(O)CC[C@@H]1NC(=O)[C@H](Cc2c[nH]c3ccccc23)NC(=O)[C@H](CS)NC(=O)[C@H](Cc2c[nH]c3ccccc23)NC(=O)[C@H](CCC(=O)O)NC(=O)[C@H](Cc2c[nH]c3ccccc23)NC(=O)[C@H](CCC(=O)O)NC(=O)[C@H](Cc2c[nH]c3ccccc23)NC(=O)[C@H](CCC(=O)O)NC(=O)[C@H](Cc2c[nH]c3ccccc23)NC(=O)[C@H](CCC(=O)O)NC(=O)[C@H](Cc2c[nH]c3ccccc23)NC1=O [c[(WE)5WC]] (cyclo(CWEWEWEWEWEW))
### Response 350.3±0.2 nm
